# TARGET UNDER TEST: Fatty-acid amide hydrolase 1 (Rattus norvegicus, UniProt P97612)
# Sequence (P97612 whole entry): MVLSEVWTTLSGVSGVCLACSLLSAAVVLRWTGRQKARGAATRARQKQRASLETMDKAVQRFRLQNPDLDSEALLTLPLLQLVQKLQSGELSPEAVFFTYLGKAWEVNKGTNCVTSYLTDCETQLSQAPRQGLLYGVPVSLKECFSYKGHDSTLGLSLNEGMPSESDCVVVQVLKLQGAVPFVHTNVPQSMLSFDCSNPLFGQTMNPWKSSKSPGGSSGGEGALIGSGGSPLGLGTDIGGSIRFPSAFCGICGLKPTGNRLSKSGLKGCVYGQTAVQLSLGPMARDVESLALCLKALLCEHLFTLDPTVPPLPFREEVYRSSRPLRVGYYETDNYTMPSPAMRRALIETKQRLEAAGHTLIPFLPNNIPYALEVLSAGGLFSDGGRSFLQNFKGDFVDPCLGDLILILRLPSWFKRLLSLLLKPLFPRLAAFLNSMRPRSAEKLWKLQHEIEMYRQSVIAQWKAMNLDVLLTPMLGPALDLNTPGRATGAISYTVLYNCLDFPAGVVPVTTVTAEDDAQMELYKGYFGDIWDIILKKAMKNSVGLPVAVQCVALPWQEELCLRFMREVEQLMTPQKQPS
# ASSAY PROCEDURE: Inhibition of rat recombinant FAAH assessed as [3H]AEA hydrolysis preincubated 15 mins before [3H]AEA substrate addition
Kindly supply the reported IC50 values for the records listed here.
Answers are plain numbers, in µM.

1) CCCCC/C=C\C/C=C\CCCCCCCC(=O)NCCI
6.66

query: Indicate the recorded IC50 value for this compound: CCCCC/C=C\C/C=C\C/C=C\C/C=C\CCCC(=O)NCCI
result: 7.93

* * *

# TARGET UNDER TEST: UniProt:P97612
# ASSAY PROCEDURE: Inhibition of rat recombinant FAAH assessed as [3H]AEA hydrolysis
# CONDITION CONTEXT: read-out: IC50
ENDPOINT NAME: IC50 (µM)
One number for each entry, in µM.

Below, each entry is followed by its recorded IC50 result.
1) CCCCC/C=C\C/C=C\C/C=C\C/C=C\CCCC(=O)NCCI
3.14
2) CCCCC/C=C\C/C=C\CCCCCCCC(=O)NCCO [LINOLEOYLETHANOLAMIDE]
7.58

Note: attention shifts to another entry.
query: Indicate the recorded IC50 value for this compound: CCCCC/C=C\C/C=C\CCCCCCCC(=O)NCCI
result: 5.78

meta.source: ChEMBL document CHEMBL1139323
